Assay: Drug uptake in C57BL/6s mouse brain at 200 mg/kg, po measured at 2 hrs
Assay type: ADME, organism-based
Conditions: read-out: Drug uptake
readout-name: concentration at 2 h (ng/mL)
// units = ng/mL; emit number, no label

Task item: Given the compound O=c1cc(CN2CCOc3c(Cl)cc(-n4ccc5cc(F)ccc54)cc3C2)cc[nH]1 , what is its reported concentration at 2 h?
Reply: 11500

---

Experiment: Half life in CD1 mouse at 1 mg/kg, iv
Type: ADME, organism-based
Conditions: in vivo
readout-name: half-life (h)
Give the value, in units of h, as a plain number.

Task item: Fill in the blank: the reported half-life of O=c1cc(CN2CCOc3c(Cl)cc(-n4ccc5cc(F)ccc54)cc3C2)cc[nH]1 is ____.
Reply: 3.4

Each recorded value in this set is attributed to ChEMBL document CHEMBL3585259.
